# target_entity: PI3K-gamma (Homo sapiens)
# Sequence (P48736 whole entry, species assumed): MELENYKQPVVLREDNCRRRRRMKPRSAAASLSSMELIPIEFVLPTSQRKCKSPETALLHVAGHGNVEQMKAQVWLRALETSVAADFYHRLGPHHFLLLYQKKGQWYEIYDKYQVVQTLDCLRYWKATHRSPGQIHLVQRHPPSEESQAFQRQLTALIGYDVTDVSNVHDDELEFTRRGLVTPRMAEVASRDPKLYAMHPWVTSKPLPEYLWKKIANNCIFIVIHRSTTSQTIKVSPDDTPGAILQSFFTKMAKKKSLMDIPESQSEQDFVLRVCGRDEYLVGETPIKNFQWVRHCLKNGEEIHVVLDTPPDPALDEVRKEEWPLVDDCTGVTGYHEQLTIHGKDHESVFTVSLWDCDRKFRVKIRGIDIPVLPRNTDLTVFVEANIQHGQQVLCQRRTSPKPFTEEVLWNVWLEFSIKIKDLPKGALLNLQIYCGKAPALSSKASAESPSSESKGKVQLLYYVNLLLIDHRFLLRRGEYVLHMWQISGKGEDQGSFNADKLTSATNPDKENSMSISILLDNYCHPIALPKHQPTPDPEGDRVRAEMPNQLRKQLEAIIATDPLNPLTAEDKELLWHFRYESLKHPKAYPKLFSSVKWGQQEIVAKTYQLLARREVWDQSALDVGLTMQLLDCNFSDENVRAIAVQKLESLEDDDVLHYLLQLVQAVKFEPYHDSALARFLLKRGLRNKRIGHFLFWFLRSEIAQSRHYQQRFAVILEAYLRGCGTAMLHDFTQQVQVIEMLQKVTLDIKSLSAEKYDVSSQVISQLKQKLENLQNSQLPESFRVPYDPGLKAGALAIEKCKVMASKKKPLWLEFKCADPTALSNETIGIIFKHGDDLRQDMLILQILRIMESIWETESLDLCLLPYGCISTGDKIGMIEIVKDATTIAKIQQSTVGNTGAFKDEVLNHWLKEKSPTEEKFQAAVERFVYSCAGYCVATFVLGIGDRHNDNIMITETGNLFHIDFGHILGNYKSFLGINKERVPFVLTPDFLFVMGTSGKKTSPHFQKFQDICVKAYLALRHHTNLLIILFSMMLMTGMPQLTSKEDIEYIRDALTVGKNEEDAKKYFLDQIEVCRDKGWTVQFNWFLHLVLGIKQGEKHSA
attribute_measured: Ki

QUERY: Note Ki for the compound shown: `COc1cc(-c2nc3c(cc2C)C(=O)N(c2cn[nH]c2)C3)cnc1OC`
RESULT: 500 to 2500 nM
